test: Compound cytotoxicity, XTT-based colorimetric assay; assay type: cell-based; conditions: human; uninfected MT2 cells, day 4, XTT; read-out: CC50
Attribute Measured: CC50 at 4 days

The following compounds have reported results that may help.
Compound: CO[C@H]1CCN(CCn2nc(NS(C)(=O)=O)c3c(Cl)ccc(-n4c([C@H](Cc5cc(F)cc(F)c5)NC(=O)Cn5nc(C(F)F)c6c5C(F)(F)[C@@H]5C[C@H]65)nc5nc(C6CCC(F)(F)CC6)cc(C(F)F)c5c4=O)c32)C1 (atropisomer, axis not shown; (P)) [Example 257]
CC50 at 4 days: > 50 nM
--
Compound: COCCCn1nc(NS(C)(=O)=O)c2c(Cl)ccc(-n3c([C@H](Cc4cc(F)cc(F)c4)NC(=O)Cn4nc(C(F)F)c5c4C(F)(F)[C@@H]4C[C@H]54)nc4nc(C5(F)CCC(F)(F)CC5)cc(CN5C[C@@H](C)O[C@@H](C)C5)c4c3=O)c21 (atropisomer, axis not shown; (P)) [Example 600]
CC50 at 4 days: > 20 nM

stdin: Query (compound): COCCCn1nc(NS(C)(=O)=O)c2c(Cl)ccc(-n3c([C@H](Cc4cc(F)cc(F)c4)NC(=O)Cn4nc(C5CC5)c5c4C[C@@H]4C[C@H]54)nc4nc(C5(F)CCC(F)(F)CC5)cc(CN5C[C@@H](C)O[C@@H](C)C5)c4c3=O)c21 (atropisomer, axis not shown; (P)) [Example 602] ; field requested: CC50 at 4 days
stdout: > 20 nM

====

experiment: Compound cytotoxicity, XTT-based colorimetric assay; assay type: cell-based; conditions: human; uninfected MT2 cells, day 4, XTT; read-out: CC50
Attribute Measured: CC50 at 4 days

Molecule: Cc1cc(C2CCC(F)(F)CC2)nc2nc([C@H](Cc3cc(F)cc(F)c3)NC(=O)Cn3nc(C(F)F)c4c3C(F)(F)[C@@H]3C[C@H]43)n(-c3ccc(Cl)c4c(NS(C)(=O)=O)nn(CCN5C[C@@H](C)O[C@@H](C)C5)c34)c(=O)c12 (atropisomer, axis not shown; (P))
CC50 at 4 days: > 50 nM

stdin: Item under review: COCCn1nc(NS(C)(=O)=O)c2c(Cl)ccc(-n3c([C@H](Cc4cc(F)cc(F)c4)NC(=O)Cn4nc(C(F)F)c5c4C(F)(F)[C@@H]4C[C@H]54)nc4nc(C5CCC(F)(F)CC5)cc(C)c4c3=O)c21 (atropisomer, axis not shown; (P)) . Reported CC50 at 4 days?
stdout: > 50 nM

====

# CC50 at 4 days values compiled below
experiment: Compound cytotoxicity, XTT-based colorimetric assay; format: cell-based; conditions: human; uninfected MT2 cells, day 4, XTT; read-out: CC50

Molecule: CO[C@@H](C)CNC(=O)Cn1nc(NS(C)(=O)=O)c2c(Cl)ccc(-n3c([C@H](Cc4cc(F)cc(F)c4)NC(=O)Cn4nc(C5CC5)c5c4C[C@@H]4C[C@H]54)nc4nc(C5CCC(F)(F)CC5)cc(C)c4c3=O)c21 (atropisomer, axis not shown; (P))
CC50 at 4 days: > 20 nM
//
Molecule: COCCCn1nc(NS(C)(=O)=O)c2c(Cl)ccc(-n3c([C@H](Cc4cc(F)cc(F)c4)NC(=O)Cn4nc(C(F)F)c5c4C(F)(F)[C@@H]4C[C@H]54)nc4nc(C5CCC(F)(F)CC5)cc(NCCc5ccn(C)n5)c4c3=O)c21 (atropisomer, axis not shown; (P))
CC50 at 4 days: > 20 nM
//
Molecule: CS(=O)(=O)Nc1nn(CCN2CC[C@](F)(C(F)(F)F)C2)c2c(-n3c([C@H](Cc4cc(F)cc(F)c4)NC(=O)Cn4nc(C(F)F)c5c4C(F)(F)[C@@H]4C[C@H]54)nc4nc(C5CCC(F)(F)CC5)ccc4c3=O)ccc(Cl)c12 (atropisomer, axis not shown; (P))
CC50 at 4 days: > 50 nM

Next molecule, CC50 at 4 days to be filled in.
stdin: Recorded CC50 at 4 days for Cc1cc(C2CCC(F)(F)CC2)nc2nc([C@H](Cc3cc(F)cc(F)c3)NC(=O)Cn3nc(C4CC4)c4c3C[C@@H]3C[C@H]43)n(-c3ccc(Cl)c4c(NS(C)(=O)=O)nn([C@H](C)CN5C[C@H](F)C[C@H](F)C5)c34)c(=O)c12 (relative stereo) , please?
stdout: > 20 nM

====

As shown below, each of these molecules has a reported CC50 at 4 days value.
experiment: Compound cytotoxicity, XTT-based colorimetric assay; format: cell-based; conditions: human; uninfected MT2 cells, day 4, XTT; read-out: CC50

Examples with answers:
Molecule: CCNc1cc(C2CCC(F)(F)CC2)nc2nc([C@H](Cc3cc(F)cc(F)c3)NC(=O)Cn3nc(C(F)F)c4c3C(F)(F)[C@@H]3C[C@H]43)n(-c3ccc(Cl)c4c(NS(C)(=O)=O)nn(CCCOC)c34)c(=O)c12 (atropisomer, axis not shown; (P)) [Example 427]
Measured Value: > 20 nM
//
Molecule: COCCNc1cc(C2CCC(F)(F)CC2)nc2nc([C@H](Cc3cc(F)cc(F)c3)NC(=O)Cn3nc(C(F)F)c4c3C(F)(F)[C@@H]3C[C@H]43)n(-c3ccc(Cl)c4c(NS(C)(=O)=O)nn(CCN5C[C@@H](C)O[C@@H](C)C5)c34)c(=O)c12 (atropisomer, axis not shown; (P)) [Example 418]
Measured Value: > 20 nM
//
Molecule: Cc1cc(C2(F)CCC(F)(F)CC2)nc2nc([C@H](Cc3cc(F)cc(F)c3)NC(=O)Cn3nc(C(F)F)c4c3C(F)(F)[C@@H]3C[C@H]43)n(-c3ccc(Cl)c4c(NS(C)(=O)=O)nn(CCN5CCOC(C)(C)C5)c34)c(=O)c12 (atropisomer, axis not shown; (P)) [Example 578]
Measured Value: > 20 nM
//
Molecule: COCCNc1cc(C2CCC(F)(F)CC2)nc2nc([C@H](Cc3cc(F)cc(F)c3)NC(=O)Cn3nc(C(F)F)c4c3C(F)(F)[C@@H]3C[C@H]43)n(-c3ccc(Cl)c4c(NS(C)(=O)=O)nn(CCN5CCCC(F)(F)C5)c34)c(=O)c12 (atropisomer, axis not shown; (P)) [Example 416]
Measured Value: > 20 nM
//
Molecule: Cc1cc(C2CCC(F)(F)CC2)nc2nc([C@H](Cc3cc(F)cc(F)c3)NC(=O)Cn3nc(C4CC4)c4c3C[C@@H]3C[C@H]43)n(-c3ccc(Cl)c4c(NS(C)(=O)=O)nn(CCN5CC(F)(F)C(F)(F)C5)c34)c(=O)c12 (atropisomer, axis not shown; (P)) [Example 248]
Measured Value: > 50 nM
//
Molecule: Cc1cc(C2(F)CCC(F)(F)CC2)nc2nc([C@H](Cc3cc(F)cc(F)c3)NC(=O)Cn3nc(C(F)F)c4c3C(F)(F)[C@@H]3C[C@H]43)n(-c3ccc(Cl)c4c(NS(C)(=O)=O)nn(C[C@H](C)N5CC(C)(C)OC(C)(C)C5)c34)c(=O)c12 (atropisomer, axis not shown; (P)) [Example 717]
Measured Value: > 20 nM

stdin: Which CC50 at 4 days is reported for this molecule? COCCCn1nc(NS(C)(=O)=O)c2c(Cl)ccc(-n3c([C@H](Cc4cc(F)cc(F)c4)NC(=O)Cn4nc(C(F)F)c5c4C(F)(F)[C@@H]4C[C@H]54)nc4nc(C5CCC(F)(F)CC5)cc(CN5CC(OC)C5)c4c3=O)c21 (atropisomer, axis not shown; (P)) [Example 604]
stdout: > 20 nM

stdin: Quick one: CC50 at 4 days of C[C@@H]1CN(Cc2cc(C3CCC(F)(F)CC3)nc3nc([C@H](Cc4cc(F)cc(F)c4)NC(=O)Cn4nc(C(F)F)c5c4C(F)(F)[C@@H]4C[C@H]54)n(-c4ccc(Cl)c5c(NS(C)(=O)=O)nn(CCN6C[C@H](F)C[C@H](F)C6)c45)c(=O)c23)C[C@H](C)O1 (atropisomer, axis not shown; (P)) [Example 526] ?
stdout: > 20 nM

stdin: # get_value(readout='CC50 at 4 days', item= Cc1cc(C2(F)CCC(F)(F)CC2)nc2nc([C@H](Cc3cc(F)cc(F)c3)NC(=O)Cn3nc(C(F)F)c4c3C(F)(F)[C@@H]3C[C@H]43)n(-c3ccc(Cl)c4c(NS(C)(=O)=O)nn(CCN5CC(C)(C)OC(C)(C)C5)c34)c(=O)c12 (atropisomer, axis not shown; (P)) [Example 501] )
stdout: > 20 nM

stdin: Reported CC50 at 4 days, molecule COCCNc1cc(C2CCC(F)(F)CC2)nc2nc([C@H](Cc3cc(F)cc(F)c3)NC(=O)Cn3nc(C(F)F)c4c3C(F)(F)[C@@H]3C[C@H]43)n(-c3ccc(Cl)c4c(NS(C)(=O)=O)nn(CCN5C[C@@H](F)[C@@H](F)C5)c34)c(=O)c12 (atropisomer, axis not shown; (P)) [Example 417] : ____
stdout: > 20 nM

stdin: Would you mind telling me what CC50 at 4 days value was observed for COCCCn1nc(NS(C)(=O)=O)c2c(Cl)ccc(-n3c([C@H](Cc4cc(F)cc(F)c4)NC(=O)Cn4nc(C(F)F)c5c4C(F)(F)[C@@H]4C[C@H]54)nc4nc(C5CCC(F)(F)CC5)cc(NCCN5CCC(F)(F)C5)c4c3=O)c21 (atropisomer, axis not shown; (P)) [Example 552] ?
stdout: > 20 nM

stdin: Return reported CC50 at 4 days; argument: COCCN(CCOC)C(=O)Cn1nc(NS(C)(=O)=O)c2c(Cl)ccc(-n3c([C@H](Cc4cc(F)cc(F)c4)NC(=O)Cn4nc(C(F)F)c5c4C(F)(F)[C@@H]4C[C@H]54)nc4nc(C5CCC(F)(F)CC5)cc(C)c4c3=O)c21 (atropisomer, axis not shown; (P)) [Example 401]
stdout: > 20 nM

stdin: Any idea what CC50 at 4 days was measured for CS(=O)(=O)Nc1nn(CCOCC(F)(F)F)c2c(-n3c([C@H](Cc4cc(F)cc(F)c4)NC(=O)Cn4nc(C(F)F)c5c4C(F)(F)[C@@H]4C[C@H]54)nc4nc(C5CCC(F)(F)CC5)cc(C(F)F)c4c3=O)ccc(Cl)c12 (atropisomer, axis not shown; (P)) [Example 155] ?
stdout: > 50 nM
